assay: Microsomal stability, human; details: % parent remaining at 1 hour
quantity_kind: microsomal stability human (% remaining)
State the answer as a number, implicitly in % remaining.

CCCN1C(CO)C2c3ccccc3N(S(C)(=O)=O)CC21 (racemic) [31c]    69
CCCN1[C@H](CO)[C@H](c2ccccc2)[C@@H]1CN [26b]    73
CCCN1C(CO)C2c3ccccc3N(C(C)=O)CC21 (racemic) [31b]    88
CCCN1C2CN(Cc3ccc(F)cc3)CC1C2c1ccccc1 (stereo not shown) [27d]    55
CCCN1C2CN(S(C)(=O)=O)CC1C2c1ccccc1 (stereo not shown) [27c]    86

Item CCCN1[C@H](CO)[C@H](c2ccccc2)C12CNC2 [30a] : provide microsomal stability human
95

Item CN1CCCCN2[C@H](CO)[C@H](c3ccccc3)[C@@H]2C1 [29c] : provide microsomal stability human
96

Item CCCN1C(CO)C2c3ccccc3NCC21 (racemic) [31a] : provide microsomal stability human
85

Item CCCN1[C@H](CO)[C@H](c2ccccc2)C12CN(C(C)=O)C2 [30c] : provide microsomal stability human
94

Item CCCN1[C@H](CO)[C@H](c2ccccc2)[C@@H]1C#N [26a] : provide microsomal stability human
88

Attribution: paper PMC3454511
